Some compounds, each annotated with its measured pIC50.
- Test system: LoVo
- Method description: Cytotoxicity against human LoVo cells after 48 hrs by CCK8 assay
- Format: functional, cell-based
pIC50: −log10 of the molar value.

>>> observed("CC(C)=CCc1cccc2[nH]c3c(c12)C[C@@H]1CC[C@@]2(O)[C@@]45O[C@@H]4[C@H](O)[C@@H](C(C)(C)O)O[C@H]5CC[C@]2(C)[C@@]31C")
"4.42 to 4.79"

# context switch: different compound, same pIC50
Recorded pIC50 (compound CC[C@@]1(O)C(=O)OCc2c1cc1n(c2=O)Cc2cc3ccccc3nc2-1 ): 7.50 to 9.49
